Test system: MS2 coat protein
Assay: apparent KD of MS2 coat protein; designed switch direction (-1 OFF switch, 1 ON switch): 1; higher = weaker reporter binding
Details: Eterna round: R98; input ligand: FMN 200 uM
Label rule, in plain words: apparent KD of MS2 coat protein of 500 nM and up is Y, under 500 nM is N.

| SEQUENCE CHAIN | CLASS |
| --- | --- |
| AAAUAAAAUAUAGGAUAUGGAAACAUGAGGAUCACCCAUGUAAAAUAAAAUAAAUAAUAAUAUAACCAGAAGGAUAAAAUAAAA [LRO001_SS NG 2] | N |
| UGGAUCAAUACAGGAUAUGGUGACGCACAUGAGGAUCACCCAUGUCCGCAGCGUGCUAAGCACGCCCAGAAGGGUAUUGACUUG [Enxe] | N |
| UGGGAAUGAACAUGAGGAUCACCCAUGUCCCGGAAACGGAAUGAGGAUAUCCAUAGCAAAGCUAUGGAGAAGGCAUGGGUCCCA [SaneState 20 - Jieux - Same State NG 2] | N |
| GGCUAACGGGCUAACAUGAGGAUCACCCAUGUGGACUCAUGGUAGGAUAUGCUGUACUUUGUACAGCAGAAGGGCCGGUGAGCC [Mat - Same State NG 3 - JL Mod - D9] | N |
| CACUCCCGGUGAGGAUAUGCACAGGAUCACCGUGUAGAAGGCAUCAGGUAGAAGGUGCAGAGGAUCACCCUGUAAGGAUAUAUC [pwkr2 ssNG1 DX.12] | N |
| UCAACAAGGUGAGGAUAUGCACAGGAUCACCGUGUAGAAGGCAUCAGGUAGAAGGUGCAGAGGAUCACCCUGUAAGGAUAUACA [pwkr2 ssNG1 DX.9] | Y |
| GCUUGCGACGCAGGAUAUGGGUGCCUAAACACGAGGAUCACCCGUGUAAAGGAAGCGAAAAGCUCUCAGAAGGGCGUCGCAGGC [United States 7 - Jieux - Same State NG 2] | N |
| UCACUCACGUUAGGAUAUGGAUCGGAAAACGAUCCAGAAGGAACCUGCAAACCUGAGGAUCACCCGGGUUCCAAUAACGAGUGA [SameSame 9 - Jieux - Same State NG 1] | N |
| CGGAAUUGUACAGGAUAUGAGGGUGCCUGAGCCUCAGAAGGGUAGACCGACAUGAGGAUCACCCAUGUAUGCGGAUAACGUCCG [Sobela] | Y |
| GCGCGCGGUUGAGGAUAUUUGCGUGCGGAUCGCCCGCGCACAUGAGGAUCACCCAUGUACGAGUAGGAGAAGGUGGCCCGUGUG [Same StateNG2] | N |

----------
Form field: apparent KD of MS2 coat protein (one value per entry).
Tested on: MS2 coat protein
Assay: apparent KD of MS2 coat protein; designed switch direction (-1 OFF switch, 1 ON switch): 1; higher = weaker reporter binding
Settings: Eterna round: R95; input ligand: FMN 200 uM
ASSAY ENDPOINT: apparent KD of MS2 coat protein (nM)

| SEQUENCE CHAIN | DATA VALUE |
| --- | --- |
| UUGGUGUAGAUACAGGAUAUGUUGAUUGUAACAUGAGGAUCACCCAUGUAUCUAUGAGAUUAAAUGCAGAAGGGUGCACAUCACU [salish99_ss2_r3_090] (puzzle: Same State 2) | 209 |
| AUUAAACAUGAGGAUCACCCAUGUCAACAAAGUCGAGGAUAUGGGCAAAUAAAAUAAGAACCAGAAGGCGAAUUAU [salish99_ss1_r3_079] (puzzle: Same State 1) | 32.6 |
| GGUCCAGCCUGAGCUGGACAAAAGCAUGUACAUGAGGAUCACCCAUGUCAUGUACAAGCUUUUUGCUCGUCUUAAAG [Mat - hsa-mir-208a - 85] (puzzle: Sensor for hsa-mir-208a) | 195 |
| GGAGCUGGCACUGAGGAUAUUCAUAUUUAAACAUGAGGAUCACCCAUGUAGGCCAGAAGGCCUUGGGAGAAGGCAGGUCGGCUCG [salish99_ss2_r3_085] (puzzle: Same State 2) | 24.6 |
| UCUUGGUUUUUGCUCGUUUUUUGUGUUGAACAUGAGGAUCACCCAUGUAUUGUACGGUCCGAUUUAGUGGUAGUCCG [JMF 72] (puzzle: Sensor for hsa-mir-208a) | 34.7 |
| AGUCCAGAAUAAACUGGACAAAGACAUGUACAUGAGGAUCACCCAUGUCAUGUACAAGUUUUUUGCUCGUCUUAUAA (puzzle: Sensor for hsa-mir-208a) | 39.9 |
| AUAAGUCCGAUGCUCGUCUCUCCGUACAAACAUGAGGAUCACCCAUGUGAUCGGGCAGUAGCCCGAUCAGUAUGGCC [Raedre] (puzzle: Sensor for hsa-mir-208a) | 51.5 |
| UUCCUACAUGAGGAUCACCCAUGUGACGCCUCGAUAGGAUAUGCGUGUGCCUUGGCGCAUGCAGAAGGGUUGUAGC [JL Aveso mod 9] (puzzle: Same State 1) | 39.2 |
| GGGUAGGAGCUACAGGAUAUAUAGAAGUUGACAUGAGGAUCACCCAUGUAAGGGUACGGAGGCGGAUAGAAGGGUAUGGGAGGUG [JR_SS2_Sub033] (puzzle: Same State 2) | 55.5 |
| AUCCUACAUGAGGAUCACCCAUGUGACGCCUCGAUAGGAUAUGCGUGUGCCUUGGCGCAUGCAGAAGGAUUGGAGC [JL Aveso mod 5] (puzzle: Same State 1) | 88.4 |
| GGUAAACAUGAGGAUCACCCAUGUAAUAUAAUGGGAGGAUAUCUGAAUUAAUUAAAUUAAGGAGAAGGCCUAAUGG [Mat - Same State 1 - Mod of Eli - D49] (puzzle: Same State 1) | 248 |

----------
System: MS2 coat protein
Test: apparent KD of MS2 coat protein; designed switch direction (-1 OFF switch, 1 ON switch): -1; higher = weaker reporter binding
Conditions: input ligand: microRNA oligo, concentration not stated

| SEQUENCE CHAIN | MEASURED TARGET | apparent KD of MS2 coat protein |
| --- | --- | --- |
| UGUUGUUACGCAGGAUAUGAGGAUCACCCAUAUCAGGAUAUCGAAAGAGAACUUCUGAGGAUCACCCAGAAGGGCGGGUUAACA [pwkr exNG2 2xF5 2xFMN.38] (Eterna round: R96, puzzle: Exclusion NG 2) | MS2 coat protein | 13.6 nM |
| GGAUAAAGUCGAGGAUAUACGCACCACUAACGAGUAGAAGGCGAACAUGAGGAUCACCCAUGUGAGUUCUCAAUAAGAAACACG [Prohibition 69 - Jieux - Exclusion NG 1] (Eterna round: R96, puzzle: Exclusion NG 1) | MS2 coat protein | 26.1 nM |

----------
Test system: MS2 coat protein
Assay: apparent KD of MS2 coat protein; higher = weaker reporter binding
Conditions: Eterna round: R107; input ligand: theophylline 20 uM
ASSAY ENDPOINT: apparent KD of MS2 coat protein

| SEQUENCE CHAIN | MEASURED TARGET | ASSAY ENDPOINT | DATA VALUE |
| --- | --- | --- | --- |
| UUUGAUAGGACAGAUACCAGCGUGUUGUAGAACAUGAGGAUCACCCAUGUAGUGAUCAAGCGCCCUUGGCAGCUGGUUUGUUAGG [7.L] | MS2 coat protein | apparent KD of MS2 coat protein | 0.35 µM |
| AAUAUAUAGACGGCCGCCACUGGAAUUAAUACAUGAGGAUCACCCAUGUGAAGAGGAUAAUAACACAGGACCGGGUCUUCAUGUA [SS Tryp B Tesla 1.2] | MS2 coat protein | apparent KD of MS2 coat protein | 0.137 µM |
| CUCUGAGUCCGUAAGGACUCAGAGGCGGAUACCAGCGAGGUCCAUCGCCCUUGGCAGCCGAACAUGAGGAUCACCCAUGUCGGUA [#1 Same State - Theophylline A Attempt #25 (HarryS)] | MS2 coat protein | apparent KD of MS2 coat protein | 0.0126 µM |
| AUUAAUUGUCGUGAUACCAGACUUACAUGAGGAUCACCCAUGUUACUUAAGAUUUUUGUUGUCCCUUGGCAGCACUUUUUAAUUA [JR_Nu_ExcTheophyB_Sub024] | MS2 coat protein | apparent KD of MS2 coat protein | 0.033 µM |
| GUCUCAGACCGAGAUACCAGCUGGGUUUCCCACAUGAGGAUCACCCAUGUAUUCAGAUUAAGCCCUUGGCAGCUCAUCUAGGUCC [theeternabot_sameState_MS2_Theo_B_44] | MS2 coat protein | apparent KD of MS2 coat protein | 0.0206 µM |
| UGCACCAUAAUCAUGUUGGUGCUAGGUGAUACCAGCAUCGAAAGAUGCCCUUGGCAGCACCAACAUGAGGAUCACCCAUGUAAUA [(MT)''-(M)'-(T')-(Theo)-(Ms2)_Design1/22_3] | MS2 coat protein | apparent KD of MS2 coat protein | 0.351 µM |
| UUGGGUUUGCGAAGGAGCGGGAAAUAUAUAUAUAUAAUCCUAACAUGAGGAUCACCCAUGUCCCAGGUAGGUCGCGCGGGUUUGG [12.M] | MS2 coat protein | apparent KD of MS2 coat protein | 0.0619 µM |
| GAACAUGAGGAUCACCCAUGUGAGAAUGAUACCAGUAGAAGAAGAUGCCCUUGGCAGCGUGCGUGAGGAUCACCCAUGUAGGAGG [e-theoA-0] | MS2 coat protein | apparent KD of MS2 coat protein | 0.0341 µM |
| UUAUAAGUACCGGUCCUCAGAUCCUCAUGACGAGGACCGGUACGGCCGCCACUCGAAACAUGAGGAUCACCCAUGUAAUAAUAUC [Brourdmod09] | MS2 coat protein | apparent KD of MS2 coat protein | 0.0566 µM |
| UAUAUAUAGGCGGCCGCCACUGAUUUUCAUAUAUAUAUAACAUGAGGAUCACCCAUGUAGAUAUACAGGACCGGGCCUAUAUAUA [aaaA] | MS2 coat protein | apparent KD of MS2 coat protein | 0.0165 µM |
| GAUCCUCAUACGGAUACCAGCGAAUAACAUGAGGAUCACCCAUGUAAUAAAGAAAAUAAAUGCCCUUGGCAGCCGAAUAGAUAGU [Same State Theophylline B GF 1] | MS2 coat protein | apparent KD of MS2 coat protein | 0.137 µM |
| CGCCUACAGGUGUACUAUUGUGGUGAAGAUACCAGAUAGCCCAAUAUCCCUUGGCAGCUUCAGACAUGAGGAUCACCCAUGUAUC [theeternabot_exclusion_MS2_Theo_A_30] | MS2 coat protein | apparent KD of MS2 coat protein | 0.0187 µM |
| AGCACUGUGACGGCCGCCACUAUAUUAGGGUGGUAAGGUUCAUAAAUACAUGAGGAUCACCCAUGUAGGACCGGGUCUCAGUGCA [Omei Trp Exc B A v2] | MS2 coat protein | apparent KD of MS2 coat protein | 0.011 µM |
| UUGGGUUUGUGAAGGAGCGGGAAAGUUUUAUAGUGAAUCCUAACAUGAGGAUCACCCAUGUCCCAGGUAGGUCGCGCGGGUUUGG [12.Q] | MS2 coat protein | apparent KD of MS2 coat protein | 0.115 µM |
| AAUAACAUGAGGAUCACCCAUGUAAAAGAUACCAGAUGCAUGAUGAUCCCUUGGCAGCUUAAAACGCGAUUGGAAACAAUCGCGA [Mat - Same State Theophlline A - Mod of Eli - D13] | MS2 coat protein | apparent KD of MS2 coat protein | 0.0934 µM |
| ACAUGAGGAUCACCCAUGUACAUGAGGGAAGGAGCGGUACAUGAGCCAGGUAGGUCGCCCAACAGCAAAUGGCAUGUACAACGGA [hhnmullin] | MS2 coat protein | apparent KD of MS2 coat protein | 0.0743 µM |
| CCAGCCCUUCUAGAUACCAGCUUUCAAUAUAAGACAACUCACAUGAGGAUCACCCAUGUUAGCCCUUGGCAGCUAAGAUCCACAA [theeternabot_exclusion_MS2_Theo_B_32] | MS2 coat protein | apparent KD of MS2 coat protein | 0.067 µM |
| GUGUUUGUGUGAGAUACCAGUGAGGCCACAUGAGGAUCACCCAUGUCCCUCACUCCGGCCCACCCUUGGCAGCUCUUAUAGUAGU [Exclusion Theophylline B GF 23] | MS2 coat protein | apparent KD of MS2 coat protein | 0.0133 µM |
| UCGGGCCUUCUUUCUUGGCCCGUUACAGAAGGAGCGUCGGAAAUGACAGGUAGGUCGCUGAGAACAUGAGGAUCACCCAUGUAUU [SSAA #14] | MS2 coat protein | apparent KD of MS2 coat protein | 0.0289 µM |
| ACUUGAUACUGAAGGAGCGUCGGAUAAACUCGCACAUGAGGAUCACCCAUGUAUAUGAAUCGGCAGGUAGGUCGCAGUAUCGAGU [#21 Same State - Arginine B] | MS2 coat protein | apparent KD of MS2 coat protein | 0.0204 µM |
| CGCCCAGUUACGGCCGCCACUUCGAUGGCAAAUGUCGAGCCUCCACAUGAGGAUCACCCAUGUCGAAGGACCGGGUACUGCUUGC [theeternabot_sameState_MS2_Trp_B_17] | MS2 coat protein | apparent KD of MS2 coat protein | 0.0444 µM |
| CAUAUAUAUAGAAGGAGCGACAUGAGGAUCACCCAUGUCUACCACGUCGAAAGACGCUCAUGUCAGGUAGGUCGCUAUAUAUAUG [Astros-Eli-mod2] | MS2 coat protein | apparent KD of MS2 coat protein | 0.154 µM |
| AGUCUAUGGAGAGAUACCAGUGAGAGCCAUAGACAUGAGGAUCACCCAUGUGACAUGGAUCACCCUUGGCAGCUCAACGAGCUCU [#20 Same State - Theophylline B] | MS2 coat protein | apparent KD of MS2 coat protein | 0.106 µM |
